# tested-on: Peptidyl-prolyl cis-trans isomerase FKBP1A (Homo sapiens)
# Sequence (P62942 whole entry): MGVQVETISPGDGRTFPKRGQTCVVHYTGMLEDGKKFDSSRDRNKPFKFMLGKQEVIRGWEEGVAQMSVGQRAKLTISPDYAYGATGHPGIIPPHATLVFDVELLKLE
measure-name: IC50 (nM)

[P] CC(C)(C)CC(=O)C(=O)N1CCCC[C@H]1C(=O)OC(CCCc1ccccc1)CC/N=C(S)/N=C1\C=CC(=C2c3ccc(O)cc3Oc3cc(O)ccc32)C(C(=O)O)=C1 (some centres not stated)
[Q] COc1cc(C(=O)C(=O)N2CCCC[C@H]2C(=O)OCCCC/N=C(S)/N=C2\C=CC(=C3c4ccc(O)cc4Oc4cc(O)ccc43)C(C(=O)O)=C2)cc(OC)c1OC
Query block: I need your help: which of the pair P , Q has higher IC50? API: response body contains the label of the selected item.
Result block: Q
(Q: 410 nM, P: 250 nM)
